molecular target: phosphorylated active hERK2 enzyme (Homo sapiens (Human)); conditions: read-out: ERK2 IC50; IMAP-FP assay; 0.5 nM hERK2, 30 μM ATP; 10 point titration, 3 μM starting concentration
Sequence (P28482 whole entry): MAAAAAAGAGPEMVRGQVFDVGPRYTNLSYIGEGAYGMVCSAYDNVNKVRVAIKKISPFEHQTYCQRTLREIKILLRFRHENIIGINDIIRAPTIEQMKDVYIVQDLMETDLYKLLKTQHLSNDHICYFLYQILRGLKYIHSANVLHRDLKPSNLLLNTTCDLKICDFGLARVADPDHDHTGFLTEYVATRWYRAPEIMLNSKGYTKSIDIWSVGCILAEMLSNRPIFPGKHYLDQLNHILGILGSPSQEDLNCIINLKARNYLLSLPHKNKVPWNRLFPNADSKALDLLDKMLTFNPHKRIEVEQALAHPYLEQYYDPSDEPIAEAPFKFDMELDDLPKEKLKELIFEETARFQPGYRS
pIC50: −log10 of the molar value.
Readout type: pIC50

Guide cases for pIC50, answers given:
CC(C)(O)[C@@H](NC(=O)Nc1cc2cn[nH]c2cn1)c1ccccc1 = 7.16
Cc1cc(-n2ncc3cc(NC(=O)N[C@H]4COC[C@@H]4c4ccccc4)ncc32)ccn1 = 8.74

1: Cc1cc(-n2ncc3cc(NC(=O)N[C@H](CCO)c4ccccc4)ncc32)ccn1
2: COC[C@@H](NC(=O)Nc1cc2cnn(C)c2cn1)c1ccccc1
Enquiry: Of the two listed items, 1 and 2 , which carries the larger pIC50 figure? Answer by stating the label of the chosen item.
Return: 1
(1: 9.09, 2: 6.05)

* * *

biological target: phosphorylated active hERK2 enzyme (Homo sapiens (Human)); settings: read-out: ERK2 IC50; IMAP-FP assay; 0.5 nM hERK2, 30 μM ATP; 10 point titration, 3 μM starting concentration
Readout type: IC50 (nM)

COC[C@@H](NC(=O)Nc1cc2cnn(-c3ccnc(C)c3)c2cn1)c1ccc(F)cc1 = 590

1: Cc1cnc(-n2ncc3cc(NC(=O)N[C@H](C)c4ccccc4)ncc32)cn1
2: Cc1cc(-n2ncc3cc(NC(=O)NCC4(N(C)C)CCCCC4)ncc32)ccn1
3: Cc1cc(-n2ncc3cc(NC(=O)N[C@H]4CN(C5CCC5)C[C@@H]4c4ccccc4)ncc32)ccn1
Enquiry: Please list the entries, largest IC50 first. # output: labels, in the requested order
Return: 2, 1, 3
(2: 1210 nM, 1: 521 nM, 3: 3.6 nM)

* * *

target: phosphorylated active hERK2 enzyme (Homo sapiens (Human)); conditions: read-out: ERK2 IC50; IMAP-FP assay; 0.5 nM hERK2, 30 μM ATP; 10 point titration, 3 μM starting concentration
Readout type: IC50 (nM)

a: COC[C@@H](NC(=O)Nc1cc2cnn(C3CCOCC3)c2cn1)c1ccccc1
b: CCn1ncc2cc(NC(=O)N[C@H](C)c3ccccc3)nc(OCCO)c21
c: Cc1cc(-n2ncc3cc(NC(=O)NCCOc4ccccc4F)ncc32)ccn1
d: CCCN1CC[C@@H](NC(=O)Nc2cc3cnn(-c4ccnc(C)c4)c3cn2)C1
Enquiry: Sort key: IC50. Order: high to low. Scope: items listed above. As an answer, provide the labels arranged in the order called for.
Return: d, a, b, c
(d: 453 nM, a: 196 nM, b: 35.3 nM, c: 6.38 nM)

a: CCO[C@H]1CNC[C@@H]1NC(=O)Nc1cc2cnn(-c3ccnc(C)c3)c2cn1
b: Cc1cc(-n2ncc3cc(NC(=O)N[C@H]4CNC[C@@H]4Oc4ccc(F)cc4)ncc32)ccn1
Enquiry: // returns a or b , whichever has the lower IC50 Field: selected label. Fill in the label of the entry you choose.
Return: b

1: Cc1cc(-n2ncc3cc(NC(=O)NCc4ccc(C(C)(C)O)cc4)ncc32)ccn1
2: CCOC[C@@H](NC(=O)Nc1cc2cnn(-c3ccnc(C)c3)c2cn1)c1ccccc1
Enquiry: Form: Entry with minimum IC50 (choose one): 1 / 2 Use the label to indicate which entry you chose.
Return: 2
(2: 1.09 nM, 1: 731 nM)

I: COC(=O)[C@@H](NC(=O)Nc1cc2cnn(-c3ccnc(C)c3)c2cn1)c1ccccc1
II: COCc1nc(NC(=O)N[C@H](C)c2ccccc2)cc2cnn(-c3ccc(F)cc3)c12
III: Cc1cc(-n2ncc3cc(NC(=O)N[C@@H]4CN(C)C[C@H]4c4ccccc4C)ncc32)ccn1
Enquiry: List items by IC50 in falling order. Answer by listing the labels in the order asked for.
Return: I, II, III
